System: T. cruzi amastigotes
Test: 24 hour image-based assay
Assay type: cell-based
Conditions: Trypanosoma cruzi, n of 2, read-out: IC50 value, 24 hours incubation
For each of the compounds below, state its pIC50.
One number for each entry, as −log10 of the molar value.

Fill in pIC50 for each of the 2 compounds listed.
1. O=C(Cn1ccnc1[N+](=O)[O-])NCc1ccccc1
2. CC1CS(=O)(=O)CCN1/N=C/c1ccc([N+](=O)[O-])o1 (centres unmarked)

Key:
[5.12, 5.92]

* * *

Biological target: recombinant TcCYP51 (Trypanosoma cruzi)
Sequence (Q7Z1V1 whole entry): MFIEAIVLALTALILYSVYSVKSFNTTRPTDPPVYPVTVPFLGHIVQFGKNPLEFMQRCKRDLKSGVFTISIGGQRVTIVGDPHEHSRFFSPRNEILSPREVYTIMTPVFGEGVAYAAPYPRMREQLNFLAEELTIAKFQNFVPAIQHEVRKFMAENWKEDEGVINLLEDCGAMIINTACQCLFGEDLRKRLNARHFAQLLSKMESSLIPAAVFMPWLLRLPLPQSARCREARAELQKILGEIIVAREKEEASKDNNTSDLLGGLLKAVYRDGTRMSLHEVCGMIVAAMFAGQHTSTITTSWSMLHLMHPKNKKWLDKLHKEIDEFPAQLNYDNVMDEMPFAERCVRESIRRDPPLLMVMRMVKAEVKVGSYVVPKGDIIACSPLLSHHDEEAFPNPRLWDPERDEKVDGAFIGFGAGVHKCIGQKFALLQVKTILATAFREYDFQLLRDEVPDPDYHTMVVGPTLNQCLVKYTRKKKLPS
Assay type: biochemical
Settings: single concentration response curve; read-out: IC50 value against recombinant TcCYP51, preliminary
Experimental: The activity of compounds against TcCYP51 was determined at the University of Dundee as outlined previously. This assay utilises the fluorogenic probe benzyloxymethyloxycyanocoumarin (BOMCC), activated by TcCYP51. […] Compound IC50 values in the T. cruzi and HEK293 cell-based assays were determined using Prism 5.0 (GraphPad software), derived by a sigmoidal concentration response (variable slope) analysis. […]
MEASURED QUANTITY: pIC50
One number for each entry, as −log10 of the molar value.

// sample COc1ccc2sc(N(Cc3cccnc3)C(=O)c3ccc(C#N)cc3)nc2c1 [MMV001239] , its pIC50 was 7.34
